Test system: STK39
Conditions: concentration: 1 μM, replicates: in singlicate; n = 1
Each entry gets FALSE if its %Inh stays under 4%, and TRUE if its %Inh is 4% or above.

compound: c1ccc(-c2n[nH]cc2Nc2ccnc3ccccc23)nc1
experimental.target: STK39
category.label: TRUE
--
compound: CCCCc1nn2ncccc2c1-c1ccnc(Nc2ccc(N3CCN(C)CC3)cc2)n1
experimental.target: STK39
category.label: TRUE
--
compound: CC(C)c1nc(-c2cccc(NS(=O)(=O)c3c(F)cccc3F)c2F)c(-c2ccnc(Nc3ccc(N4CCOCC4)nc3)n2)s1
experimental.target: STK39
category.label: TRUE
--
compound: Cn1cc(-c2ccc3c(c2)CCN3C(=O)Cc2cccc(F)c2)c2c(N)ncnc21
experimental.target: STK39
category.label: TRUE
--
compound: CN1CCN(CCCNc2nccc(-c3c(-c4ccc(F)cc4)nn4cc(C(F)(F)F)ccc34)n2)CC1
experimental.target: STK39
category.label: FALSE
--
compound: Cc1ccc(S(=O)(=O)Nc2ccc(Nc3nccc(Nc4cccc5[nH]ncc45)n3)cc2)cc1
experimental.target: STK39
category.label: FALSE
--
compound: c1ccc(-c2cnc3nccnn23)cc1
experimental.target: STK39
category.label: FALSE
--
compound: COc1cccc(C2=C(Nc3ccc(Cl)c(C(=O)O)c3)C(=O)NC2=O)c1
experimental.target: STK39
category.label: TRUE
--
compound: COc1cc(Nc2nccc(-c3c(-c4cccc(NC(=O)c5c(F)cccc5F)c4)nn4ccccc34)n2)cc(OC)c1OC
experimental.target: STK39
category.label: TRUE
--
compound: Cc1ccc(C)c(NC(=O)NC2CCN(c3ccnc(Nc4ccc(F)cc4)n3)C2)c1 (centres unmarked)
experimental.target: STK39
category.label: TRUE
--
compound: COC(=O)Nc1nc2ccc(Oc3ccc(NC(=O)Nc4cc(C(F)(F)F)ccc4F)cc3)cc2n1C.Cl
experimental.target: STK39
category.label: FALSE
--
compound: COc1ccc(Nc2nccc(NCCNC(=O)c3cc4ccccc4s3)n2)cc1
experimental.target: STK39
category.label: FALSE
--
compound: c1ccc(Oc2ccc(Nc3ccnc4cc(-c5ccc(CNCCN6CCOCC6)o5)ccc34)cc2)nc1
experimental.target: STK39
category.label: FALSE
--
compound: Cl.c1ccc(-c2ccc3c(Nc4ccc5[nH]ncc5c4)ccnc3c2)nc1
experimental.target: STK39
category.label: TRUE
--
compound: O=C(Nc1cccc(-c2nn3ccccc3c2-c2ccnc(Nc3cccc(F)c3)n2)c1)c1c(F)ccc(F)c1Cl
experimental.target: STK39
category.label: TRUE
--
compound: COc1cccc(NC(=O)NC2CCN(c3ccnc(Nc4cc(OC)c(OC)c(OC)c4)n3)C2)c1 (centres unmarked)
experimental.target: STK39
category.label: FALSE
--
compound: COc1cc(Nc2nccc(N3CCC(NC(=O)c4cc5ccccc5s4)C3)n2)cc(OC)c1OC (centres unmarked)
experimental.target: STK39
category.label: FALSE
--
compound: CN(C)S(=O)(=O)c1cc(-c2ccc3nccc(-c4cccc(S(N)(=O)=O)c4)c3c2)cnc1N
experimental.target: STK39
category.label: FALSE
--
compound: CN(c1ccc(NC(=O)Nc2cc(C(F)(F)F)ccc2F)cc1)c1ccnc(Nc2ccc(S(N)(=O)=O)cc2)n1
experimental.target: STK39
category.label: FALSE
--
compound: COc1ccc(-c2coc3ccc(-c4nnc(SCc5ccc(OC)c(C(F)(F)F)c5)o4)cc23)cc1
experimental.target: STK39
category.label: FALSE
--
compound: C[C@@H](Oc1cc(-n2cnc3cc(-c4ccnc(NCCS(C)(=O)=O)c4)ccc32)sc1C(N)=O)c1ccccc1Cl
experimental.target: STK39
category.label: TRUE
--
compound: CC(C)(C)c1ccc2nccc(Nc3cccc(O)c3)c2c1
experimental.target: STK39
category.label: TRUE
--
compound: O=C(O)C(F)(F)F.O=C(O)C(F)(F)F.O=c1[nH]ccc2nc(N[C@@H]3CCCNC3)nc(Nc3ccc(S(=O)(=O)N4CCOCC4)cc3)c12
experimental.target: STK39
category.label: TRUE
--
compound: C[C@@H]1CC[C@@H](C(=O)Nc2ccccc2)CN1c1cc(-c2ccc3c(N)n[nH]c3c2)nc(N)n1
experimental.target: STK39
category.label: FALSE
--
compound: Cl.Cl.NCC(NC(=O)c1cc(-c2ccccc2)c(-c2ccnc3[nH]ccc23)s1)c1ccccc1 (centres unmarked)
experimental.target: STK39
category.label: TRUE
--
compound: COCCOCCOc1cc2ncc3c4ccc(C#N)cc4[nH]c3c2cc1OC
experimental.target: STK39
category.label: FALSE
--
compound: CN1CCN(Cc2cccc(-c3ccc4c(Nc5ccc(Oc6ccccc6)cc5)ccnc4c3)c2)CC1
experimental.target: STK39
category.label: TRUE
--
compound: Cc1cccc(NC(=O)Nc2ccc(Oc3ncnc4ccn(C)c34)cc2)c1
experimental.target: STK39
category.label: FALSE
--
compound: CC(=O)N1CCN(c2ccc(Nc3nccc(-c4sc(C(C)C)nc4-c4cccc(NS(=O)(=O)c5cccc(Cl)c5)c4)n3)cn2)CC1
experimental.target: STK39
category.label: TRUE
--
compound: COc1ccc(CNC(=O)NC2CCN(c3ccnc(Nc4ccc(F)cc4)n3)CC2)cc1
experimental.target: STK39;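 further: KINOMEscan kinase panel screen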
category.label: FALSE
